From: patent US20090123474A1

Target: T1, Angiopoietin-2 binding to Tie-2 (Homo sapiens, UniProt O15123)
T1 construct: purchased R&D Systems, Inc. BT623 (Angiopoietin-2, biotinylated); 313-TI-100 (Tie-2/Fc)
T1 sequence (O15123 19-496): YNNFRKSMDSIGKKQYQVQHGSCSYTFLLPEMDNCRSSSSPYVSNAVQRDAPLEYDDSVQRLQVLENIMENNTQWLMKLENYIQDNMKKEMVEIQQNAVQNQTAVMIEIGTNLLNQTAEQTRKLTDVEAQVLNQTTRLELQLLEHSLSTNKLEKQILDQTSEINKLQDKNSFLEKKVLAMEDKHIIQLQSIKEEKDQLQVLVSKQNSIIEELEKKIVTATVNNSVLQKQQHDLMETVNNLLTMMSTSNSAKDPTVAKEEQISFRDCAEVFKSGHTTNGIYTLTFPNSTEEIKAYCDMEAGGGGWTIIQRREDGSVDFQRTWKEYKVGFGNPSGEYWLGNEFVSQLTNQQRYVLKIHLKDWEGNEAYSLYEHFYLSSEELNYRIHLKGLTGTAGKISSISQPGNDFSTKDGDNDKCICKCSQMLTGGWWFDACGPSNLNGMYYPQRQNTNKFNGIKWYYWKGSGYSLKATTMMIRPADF
Assay: Competitive binding assay (modified ELISA): inhibition of Angiopoietin-2 binding to Tie-2
Settings: ratio of bound Angiopoietin-2 with mAb (30 μg/ml) versus without mAb

>  <Molecule>
mAb 3.31.2: fully human anti-Angiopoietin-2 monoclonal antibody, variable regions SEQ ID NO: 9-12 (antibody, listed as Homo sapiens, V domains shown) VH: EVQLVESGGGLVQPGGSLRLSCAASGFTFSSYWMSWVRQAPGKGLEWVANIKQDGSDKYYVDSVKGRFTISRDNAKNSLYLRMNSLRAEDTAVFYCARDMGSGWFDYWGQGTLVTVSSA VL: EVVMTQSPATLSVSPGERATLSCRASQSVGSNLAWYQQKPGQAPRLLIYGASTRATGIPARFSGSGSGTEFTLTISSLQSEDFAVYCCQQYNHWWTFGQGTKVEIKR

>  <Efficacy*>
0.3751

$$$$
>  <Molecule>
mAb 3.19.3: fully human anti-Angiopoietin-2 monoclonal antibody, variable regions SEQ ID NO: 5-8; also binds Angiopoietin-1 (antibody, V domains shown) VH: QVQLVESGGGVVQPGRSLRLSCAASGFTFTNYGMHWGRQAPGKGLEWVAVISHDGNNKYYVDSVKGRFTISRDNSKNTLYLQMNSLRAEDTAVYYCAREGIDFWSGLNWFDPWGQGTLVTVSSA VL: EIVLTQSPGTLSLSPGERATLSCRASQSITGSYLAWYQQKPGQAPRLLICGASSWATGIPDRFSGSGSGTDFTLTISRLEPEDFAVYYCQQYSSSPITFGQGTRLEIKR

>  <Efficacy*>
0.3945

$$$$
>  <Molecule>
mAb 5.16.3: fully human anti-Angiopoietin-2 monoclonal antibody, variable regions SEQ ID NO: 13-16 (antibody, listed as Homo sapiens, listed as Homo Sapiens, V domains shown) VH: QVQLVQSGAEVKKPGASVKVSCKASGYTFTGFYMYWVRQAPGQGLEWMGWINPNSSGTNHAQKFQGRVTMTRDTSISTAYMELSRLRSDDTAVYYCARDQDIATAGPFDYWGQGTLVTVSS VL: EIVMTQSPATLSVSPGERATLSCRASQSVSSNLAWYQQKPGQAPRLLIFGASTRATGIPARFSGSGSGTEFTLTISSLQSEDFAVYYCQQYNNWWTFGRGTKVEIKR

>  <Efficacy*>
0.3279

$$$$
>  <Molecule>
mAb 5.88.3: fully human anti-Angiopoietin-2 monoclonal antibody, variable regions SEQ ID NO: 29-32 (antibody, listed as Homo Sapiens, V domains shown) VH: EVQMVESGGGLVQPGGSLRLSCAASGFTLRSYWMSWVRQAPGKGLEWVANIKEDGSEKYHVDSVKGRFTISRDNAENSLFLQMSSLRAEDTAVYYCARDMEASAGLFDYWGQGTLVTVSSA VL: EIVMTQSPATLSVSPGERAILSCRASQSISSNLAWYQQKPGQAPRLLIYGASTRATGIPARFSGSGSGTEFTLTISSLQSEDFAVYYCQQYNYWWTFGQGTKVEIKR

>  <Efficacy*>
0.4032

$$$$
>  <Molecule>
mAb 5.28.1: fully human anti-Angiopoietin-2 monoclonal antibody, variable regions SEQ ID NO: 17-20 (antibody, listed as Homo sapiens, listed as Homo Sapiens, V domains shown) VH: EVQLVESGGIVVQPGGSLRLSCAASGFTFDDYTMHWVRQTPGKGLEWVSLISWDGGSTYYADSVKGRFTISRDNSKNSLYLQMNSLRTEDTALYYCAKDIDIAVAGTGFDHWGQGTLVTVSSA VL: EIVMTQSPATLSVSPGERATLSCRASQSVTSNLAWYQQKPGQAPRLLIYGALIRATGIPARFSGSGSGTEFTLTISSLQSEDFAVYYCQQYNNWPFTFGPGTKVDIKR

>  <Efficacy*>
0.3892

$$$$
>  <Molecule>
mAb 5.86.1: fully human anti-Angiopoietin-2 monoclonal antibody, variable regions SEQ ID NO: 25-28 (antibody, listed as Homo Sapiens, listed as Homo sapiens, V domains shown) VH: QVQLVQSGAEVKKPGASVKVSCKASGYTFTGYHMYWVRQAPGQGLEWLGWINPNSGGTNYAQKFQGRVTMTRDTSISTAYMELSRLRSDDTAVYYCVRDQGIAAAGPFDYWCQGTLVTVSSA VL: DIRMTQSPSSLSASVGDRVTITCRASQRISTYLNWYQQKPGKAPKFLIYAASSLQSGVPSRFSGSGSGTDFTLTISSLQPEDFATYYCQQSYTTPFTFGPGTKVDIKR

>  <Efficacy*>
0.3844

$$$$
>  <Molecule>
mAb 3.3.2: fully human anti-Angiopoietin-2 monoclonal antibody, variable regions SEQ ID NO: 1-4 (antibody, listed as Homo Sapiens, V domains shown) VH: EVQLVESGGGLVQPGGSLRLSCAVSGFTFSSYWMSWVRQAPGKGLEWVANIKQDGSEKYYVDSVKGRFTISRDNAKNSLYLQMNSLRAEDTAVYYCARDQGIAVAGPFDYWGQGTLVTVSSA VL: EIVMTQSPATLSVSPGERATLSCRASQTVSSDLAWYQQKPGQAPRLLIYGASIRATGIPARFSGSGSGTEFTLTISSLQSEDFAVYSCQQYYNWWTFGQGTKVEIKR

>  <Efficacy*>
0.3881

$$$$
